Assay: MPA trough at 12 h in study patients by CYP3A5*3*6*7 metabolic group
Conditions: both sexes, human, in vivo, oral, CYP3A5*3*6*7 Intermediate group (N 23); ECMPS at steady state
endpoint: concentration at 12 h (ng/mL)
Lab book: enter the figure in ng/mL, no units written.

Ask: Consider the compound COc1c(C)c2c(c(O)c1C/C=C(\C)CCC(=O)O)C(=O)OC2 and give its recorded concentration at 12 h.
Result: 41

###

Experiment: Tacrolimus pharmacokinetics stratified by CYP3A5 metabolic composite and ABCB1 3435 genotype
Format: in vivo, human
Conditions: human, whole blood, oral, 5.08 mg; ABCB1 3534 CT and TT, CYP3A5 Extensive (N 6)
endpoint: Tmax (h)
Lab book: enter the figure in h, no units written.

Ask: Consider the compound C=CC[C@@H]1/C=C(\C)C[C@H](C)C[C@H](OC)[C@H]2O[C@@](O)(C(=O)C(=O)N3CCCC[C@H]3C(=O)O[C@H](/C(C)=C/[C@@H]3CC[C@@H](O)[C@H](OC)C3)[C@H](C)[C@@H](O)CC1=O)[C@H](C)C[C@@H]2OC [tacrolimus] and give its recorded Tmax.
Result: 2.03

###

Assay: Tacrolimus pharmacokinetics stratified by CYP3A5 metabolic composite and ABCB1 3435 genotype
Type: in vivo, human
Details: human, whole blood, oral, 2.35 mg; ABCB1 3435 CT and TT, CYP3A5 Poor (N 20)
endpoint: AUC (ng·h/mL)
Lab book: enter the figure in ng·h/mL, no units written.

Ask: Consider the compound C=CC[C@@H]1/C=C(\C)C[C@H](C)C[C@H](OC)[C@H]2O[C@@](O)(C(=O)C(=O)N3CCCC[C@H]3C(=O)O[C@H](/C(C)=C/[C@@H]3CC[C@@H](O)[C@H](OC)C3)[C@H](C)[C@@H](O)CC1=O)[C@H](C)C[C@@H]2OC [tacrolimus] and give its recorded AUC.
Result: 118

###

Test: MPA trough at 12 h in study patients by CYP3A5*3*6*7 metabolic group
Settings: both sexes, human, in vivo, oral, Overall (N 65); ECMPS at steady state
endpoint: concentration at 12 h (ng/mL)
Lab book: enter the figure in ng/mL, no units written.

Ask: Consider the compound COc1c(C)c2c(c(O)c1C/C=C(\C)CCC(=O)O)C(=O)OC2 and give its recorded concentration at 12 h.
Result: 37

###

Assay: Tacrolimus pharmacokinetics stratified by CYP3A5 metabolic composite and ABCB1 3435 genotype
Format: in vivo, human
Details: human, whole blood, oral, 4 mg; ABCB1 3534 CC, CYP3A5 Intermediate (N 10); read-out: CL/LBW (converted)
endpoint: clearance (mL/min/kg)
Lab book: enter the figure in mL/min/kg, no units written.

Ask: Consider the molecule C=CC[C@@H]1/C=C(\C)C[C@H](C)C[C@H](OC)[C@H]2O[C@@](O)(C(=O)C(=O)N3CCCC[C@H]3C(=O)O[C@H](/C(C)=C/[C@@H]3CC[C@@H](O)[C@H](OC)C3)[C@H](C)[C@@H](O)CC1=O)[C@H](C)C[C@@H]2OC [tacrolimus] and give its recorded clearance.
Result: 9.17

###

Test: clinical
Settings: both, human, whole blood, oral, 2.45 mg
endpoint: clearance (mL/min/kg)
Lab book: enter the figure in mL/min/kg, no units written.

Ask: Consider the compound C=CC[C@@H]1/C=C(\C)C[C@H](C)C[C@H](OC)[C@H]2O[C@@](O)(C(=O)C(=O)N3CCCC[C@H]3C(=O)O[C@H](/C(C)=C/[C@@H]3CC[C@@H](O)[C@H](OC)C3)[C@H](C)[C@@H](O)CC1=O)[C@H](C)C[C@@H]2OC and give its recorded clearance.
Result: 8
